Target: hCRTH2 receptor (Homo sapiens)
Construct: expressed in transfected cells; host or cells: HEK293
Test: Radioligand displacement assay (3H-PGD2) on hCRTH2 receptor membranes
Format: binding
Conditions: antagonistic activity; 3H-PGD2 displacement on HEK293-hCRTH2 membrane fragments
reported_metric: IC50 (nM)

Example entries and their recorded answers appear below.
Ask: Look up IC50 of O=C(O)COc1ccc(Cl)cc1C1c2cccc(F)c2CCN1C(=O)COCc1ccccc1 (racemic) and report it.
Result: 30.9

Ask: Give IC50 for O=C(O)COc1ccc(Cl)cc1C1c2ccccc2CCN1C(=O)CCc1ccccc1C(F)(F)F (racemic)
Result: 45.8

Ask: Return value of IC50 for input CC(C)c1ccc(OCC(=O)O)c(C2c3ccccc3CCN2C(=O)OCc2ccccc2)c1 (racemic) , no commentary.
Result: 483

P: O=C(O)COc1ccc(Cl)cc1C1c2ccccc2CCN1C(=O)Cn1ccc2ccccc21 (racemic)
Q: COc1cccc(CCC(=O)N2CCc3ccccc3C2c2cc(F)ccc2OCC(=O)O)c1 (racemic)
Ask: So which one has the bigger IC50 here, P or Q ? Response format: the label of the selected entry.
Result: Q

I: O=C(O)COc1ccc(Cl)cc1C1c2ccccc2CCN1C(=O)CCOc1ccc(F)cc1 (racemic)
II: O=C(O)COc1ccc(F)cc1C1c2ccccc2CCN1C(=O)NCc1ccccc1 (racemic)
Ask: Hey, between I and II which has a smaller measured IC50? # answer = label of selected item
Result: I
(I: 7.53 nM, II: 54 nM)

---

Target: hCRTH2 receptor (Homo sapiens)
Construct: expressed in transfected cells; host or cells: HEK293
Experiment: Radioligand displacement assay (3H-PGD2) on hCRTH2 receptor membranes
Type: binding
Settings: antagonistic activity, 3H-PGD2 radioligand displacement, HEK293-hCRTH2 membranes
pIC50: −log10 of the molar value.
reported_metric: pIC50

Record excerpt, results attached:
Ask: Fill in reported pIC50 for this entry: O=C(O)COc1ccc(Cl)cc1C1c2ccccc2CCN1C(=O)CCn1ccc2ccc(F)cc21 (racemic)
Result: 7.59

Ask: Please report the measured pIC50 for O=C(O)COc1ccc(Cl)cc1C1c2ccccc2CCN1C(=O)[C@@H]1C[C@H]1c1ccc(C(F)(F)F)cc1 (mixture of isomers)
Result: 6.02

Ask: Provide one value: measured pIC50 of "Cc1nc(COC(=O)N2CCc3c(ccc(F)c3F)[C@H]2c2cc(Cl)ccc2OCC(=O)O)cs1"
Result: 8.27

Ask: Retrieve pIC50 measured for O=C(O)COc1ccc(Cl)cc1C1c2ccccc2CCN1C(=O)COc1cccc(Cl)c1 (racemic) and print it.
Result: 7.15

Ask: Identify measured pIC50 associated with O=C(O)COc1ccc(Cl)cc1C1c2ccccc2CN1C(=O)CCN1CCCc2ccccc21 (racemic)
Result: 7.22

P: O=C(O)COc1ccc(Cl)cc1C1c2ccccc2CN1C(=O)NCc1ccccc1Cl (racemic)
Q: O=C(O)COc1ccc(Cl)cc1[C@@H]1c2ccc(F)cc2CCN1C(=O)OCn1ncc2ccccc21
Ask: Hi! Which is lower in terms of pIC50, the first one P or the second one Q ? Write the label of whichever entry you select.
Result: P
(P: 7.86, Q: 9.06)

A: O=C(O)COc1ccc(Cl)cc1C1c2ccccc2CCN1C(=O)OCc1ccc(C(F)(F)F)cc1 (racemic)
B: O=C(O)COc1ccc(Cl)cc1[C@@H]1c2ccc(F)cc2CCN1C(=O)CCn1ncc2cccc(F)c21
C: O=C(O)COc1ccc(Cl)cc1[C@@H]1c2ccc(F)cc2CCN1C(=O)CCn1ncc2c(Cl)cccc21
D: O=C(O)COc1ccc(Cl)cc1C1c2ccccc2CN1C(=O)CCn1ncc2ccccc21 (racemic)
Ask: Hey, quick one: sort these by pIC50, largest value first please. Write the labels in rank order as requested.
Result: D, A, B, C

P: O=C(O)COc1ccc(Cl)cc1C1c2ccccc2CCN1C(=O)COc1cncc(Cl)c1 (racemic)
Q: O=C(O)COc1ccc(Cl)cc1[C@@H]1c2ccc(F)cc2CCN1C(=O)CCn1ncc2cccc(Cl)c21
R: O=C(O)COc1ccc(Cl)cc1[C@@H]1c2ccc(F)cc2CCN1C(=O)OCc1nc2ccccc2s1
S: Cc1cnn(COC(=O)N2CCc3cc(F)ccc3[C@H]2c2cc(Cl)ccc2OCC(=O)O)c1
Ask: Endpoint returns the given compounds ordered by ascending pIC50. Give me the labels in the order the question wants.
Result: Q, P, R, S

1: CCn1nc(C)cc1CCOC(=O)N1CCc2c(ccc(F)c2F)[C@H]1c1cc(Cl)ccc1OCC(=O)O
2: O=C(O)COc1ccc(Cl)cc1C1c2ccccc2CCN1C(=O)CCn1c(C(F)(F)F)cc2ccccc21 (racemic)
3: O=C(O)COc1ccc(Cl)cc1C1c2ccccc2CCN1C(=O)CCn1ccc2cc(Cl)ccc21 (racemic)
4: O=C(O)COc1ccc(Cl)cc1[C@@H]1c2ccccc2CCN1C(=O)OCc1noc2ccccc12
Ask: Ordering: ascending pIC50. Labels, ranked as asked.
Result: 2, 3, 1, 4

I: COc1cc2c(ccn2CCC(=O)N2CCc3ccccc3C2c2cc(Cl)ccc2OCC(=O)O)cc1Cl (racemic)
II: Cn1cncc1COC(=O)N1CCc2c(ccc(F)c2F)[C@H]1c1cc(Cl)ccc1OCC(=O)O
Ask: Compare the recorded pIC50 of I and II ; state which is larger. Your answer should be the label attached to the chosen record.
Result: II
(II: 8.55, I: 7.09)

1: O=C(O)COc1ccc(Cl)cc1C1c2ccccc2CN1C(=O)Cn1ccc2ccccc21 (racemic)
2: O=C(O)COc1ccc(Cl)cc1C1c2ccc(F)cc2CN1C(=O)CCn1ncc2ccccc21 (racemic)
3: O=C(O)COc1ccc(F)cc1C1c2cc(-c3ccc(F)cc3)ccc2CCN1C(=O)OCc1ccccc1 (racemic)
4: CN(CC(=O)N1CCc2ccccc2C1c1cc(Cl)ccc1OCC(=O)O)c1ccccc1 (racemic)
Ask: Ascending by pIC50, please. When ranking, write the labels in the order the request describes.
Result: 3, 4, 1, 2
(3: 6.10, 4: 6.42, 1: 6.89, 2: 8.34)

1: Cc1cncc(OCC(=O)N2CCc3ccccc3C2c2cc(Cl)ccc2OCC(=O)O)c1 (racemic)
2: O=C(O)COc1ccc(Cl)cc1[C@@H]1c2ccccc2CCN1C(=O)OCc1nc2ccccc2o1
3: CC(C)[C@@H]1C[C@H]1C(=O)N1CCc2ccccc2[C@H]1c1cc(Cl)ccc1OCC(=O)O (single isomer, unassigned) [Example 464]
4: O=C(O)COc1ccc(Cl)cc1C1c2ccccc2CCN1C(=O)OCc1cccc(Cl)c1 (racemic)
Ask: Rank order required: pIC50, descending. Rank the items, then write their labels in that order.
Result: 2, 4, 1, 3

---

Biological target: hCRTH2 receptor (Homo sapiens, UniProt Q9Y5Y4)
Construct: expressed in transfected cells; host or cells: HEK293
Assay: Radioligand displacement assay (3H-PGD2) on hCRTH2 receptor membranes
Type: binding
Conditions: antagonistic activity, 3H-PGD2 radioligand displacement, HEK293-hCRTH2 membranes
pIC50: −log10 of the molar value.
reported_metric: pIC50

A: O=C(O)COc1ccc(Cl)cc1C1c2ccccc2CCN1C(=O)CCn1ccc2ncccc21 (racemic)
B: O=C(O)COc1ccc(Cl)cc1[C@@H]1c2ccc(F)c(F)c2CCN1C(=O)OCc1nc2ccccc2o1
Ask: # return whichever of A and B has the smaller pIC50 Label of pick, please.
Result: A

---

Biological target: hCRTH2 receptor (Homo sapiens)
Construct: expressed in transfected cells; host or cells: HEK293
Sequence (Q9Y5Y4 1-395): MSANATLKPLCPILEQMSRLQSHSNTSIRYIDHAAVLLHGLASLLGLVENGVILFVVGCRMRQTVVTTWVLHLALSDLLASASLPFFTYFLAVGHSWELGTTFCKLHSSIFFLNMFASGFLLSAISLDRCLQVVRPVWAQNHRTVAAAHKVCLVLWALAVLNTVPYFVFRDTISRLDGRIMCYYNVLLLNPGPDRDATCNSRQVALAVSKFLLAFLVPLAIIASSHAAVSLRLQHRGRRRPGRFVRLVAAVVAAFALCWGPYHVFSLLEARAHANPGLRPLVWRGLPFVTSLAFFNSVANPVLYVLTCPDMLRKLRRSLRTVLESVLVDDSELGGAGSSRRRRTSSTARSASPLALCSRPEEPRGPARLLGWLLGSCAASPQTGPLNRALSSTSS
Assay: Radioligand displacement assay (3H-PGD2) on hCRTH2 receptor membranes
Assay type: binding
Conditions: antagonistic activity; 3H-PGD2 displacement on HEK293-hCRTH2 membrane fragments
pIC50: −log10 of the molar value.
reported_metric: pIC50

# count of solved cases: 5
Ask: Using the record for O=C(O)COc1ccc(Cl)cc1C1c2ccccc2CCN1C(=O)OCCc1ccccc1Cl (racemic) , state its measured pIC50.
Result: 7.98

Ask: For the molecule "O=C(O)COc1ccc(Cl)cc1[C@@H]1c2ccccc2CCN1C(=O)[C@@H]1C[C@H]1c1ccccc1" , report pIC50.
Result: 8.86

Ask: Please give the documented pIC50 of O=C(O)COc1ccc(Cl)cc1C1c2ccccc2CCN1C(=O)OCc1cc(F)ccc1Cl (racemic)
Result: 7.82

Ask: Quote pIC50 reported for O=C(O)COc1ccc(Cl)cc1C1c2ccccc2CCN1C(=O)CCc1cnnn1-c1ccccc1 (racemic) please.
Result: 6.94

Ask: Retrieve pIC50 measured for O=C(O)COc1ccc(Cl)cc1C1c2ccccc2CCN1C(=O)CN1CCCc2ccccc21 (racemic) and print it.
Result: 7.20

P: O=C(O)COc1ccc(Cl)cc1C1c2ccccc2CN1C(=O)OCc1ccccc1 (stereo not drawn) [Example 231]
Q: COc1ccccc1COCC(=O)N1CCc2ccccc2C1c1cc(F)ccc1OCC(=O)O (racemic)
Ask: // compare: P vs Q , metric pIC50, want the smaller Respond using the label that marks the chosen record.
Result: Q
(Q: 7.72, P: 8.58)

P: O=C(O)COc1ccc(Cl)cc1C1c2ccccc2CCN1C(=O)CCCc1cccc(F)c1 (racemic)
Q: COc1ccccc1CNC(=O)N1CCc2ccccc2C1c1cc(Cl)ccc1OCC(=O)O (racemic)
R: O=C(O)COc1ccc(F)cc1C1c2ccccc2CCN1C(=O)CNS(=O)(=O)c1cccc(F)c1 (racemic)
Ask: Provide the items ranked by increasing pIC50. Could you list the labels in the order requested?
Result: R, P, Q
(R: 6.46, P: 7.44, Q: 8.14)

I: O=C(O)CCCOc1ccc(F)cc1C1c2ccccc2CCN1C(=O)OCc1ccccc1 (racemic)
II: Cc1noc(C)c1COC(=O)N1CCc2ccccc2[C@H]1c1cc(Cl)ccc1OCC(=O)O
III: N#Cc1ccc(OCC(=O)O)c([C@@H]2c3cccc(F)c3CCN2C(=O)OCc2ccccc2)c1
IV: O=C(O)COc1ccc(Br)cc1C1c2ccccc2CCN1C(=O)OCc1ccccc1 (racemic)
Ask: Task for the reader: rank each entry by its pIC50, from the minimum upward. Use the labels to give the requested order.
Result: I, IV, II, III
(I: 6.96, IV: 7.98, II: 8.32, III: 8.70)
